- Target desc: NHE-1 (Homo sapiens, UniProt P19634)
- Construct: endogenous in cells
- Sequence (P19634 whole entry): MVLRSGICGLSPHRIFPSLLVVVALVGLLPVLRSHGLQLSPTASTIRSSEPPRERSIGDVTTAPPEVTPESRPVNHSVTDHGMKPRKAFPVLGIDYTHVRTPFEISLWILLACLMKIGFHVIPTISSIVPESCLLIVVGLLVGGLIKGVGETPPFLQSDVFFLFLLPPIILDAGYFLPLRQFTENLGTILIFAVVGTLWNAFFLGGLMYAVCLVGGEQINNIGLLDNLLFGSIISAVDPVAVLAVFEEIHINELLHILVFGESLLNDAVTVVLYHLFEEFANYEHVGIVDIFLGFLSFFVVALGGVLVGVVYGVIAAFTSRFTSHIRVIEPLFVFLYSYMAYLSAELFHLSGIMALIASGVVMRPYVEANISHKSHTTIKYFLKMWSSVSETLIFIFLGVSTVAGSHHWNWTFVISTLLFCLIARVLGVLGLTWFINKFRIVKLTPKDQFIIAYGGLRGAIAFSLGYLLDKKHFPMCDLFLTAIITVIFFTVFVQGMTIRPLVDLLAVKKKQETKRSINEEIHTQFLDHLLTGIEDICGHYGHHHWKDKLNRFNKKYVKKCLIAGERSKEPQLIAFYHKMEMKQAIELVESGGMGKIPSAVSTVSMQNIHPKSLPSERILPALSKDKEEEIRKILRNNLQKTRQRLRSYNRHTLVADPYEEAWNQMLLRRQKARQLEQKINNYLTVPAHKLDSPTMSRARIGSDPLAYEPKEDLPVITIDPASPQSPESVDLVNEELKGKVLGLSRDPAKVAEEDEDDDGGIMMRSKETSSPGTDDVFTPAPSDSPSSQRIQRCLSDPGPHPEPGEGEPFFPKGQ
- Experiment: Evaluation of NHE-1 Inhibition (pHi) in HT-29 cells
- Assay setup: BCECF dye, 50% inhibition of the intracellular pH recovery, read-out: NHE1 HT29 pHi IC50
Listed here are compounds together with their documented pIC50.
# reply with the number alone; pIC50 is -log10 of concentration in mol/L

Example results:
>  <Compound>
CC(=O)N1CCC(c2cc(C)c(C(=O)NC(=N)N)cc2C(F)(F)F)CC1

>  <pIC50>
8.05

$$$$
>  <Compound>
N=C(N)NC(=O)c1ccc(C2CCN(C(=O)c3ccc(S(N)(=O)=O)cc3)CC2)c(C(F)(F)F)c1

>  <pIC50>
7.89

$$$$
>  <Compound>
COCC(=O)N1CCC(c2ccc(C(=O)NC(=N)N)cc2S(C)(=O)=O)CC1

>  <pIC50>
7.62

$$$$

Query :: Quick check: pIC50 on NHE-1 (Homo sapiens, UniProt P19634), item N=C(N)NC(=O)c1ccc(C2CCN(C(=O)c3ccc(O)nc3)CC2)c(C(F)(F)F)c1 ?
Result :: 7.68

Query :: Input N=C(N)NC(=O)c1ccc(C2CCN(C(=O)c3ccc4ncccc4c3)CC2)c(C(F)(F)F)c1
Result :: 7.19

Query :: Moving on to the next compound: N#Cc1ccc(CC(N)C(=O)N2CCC(c3ccc(C(=O)NC(=N)N)cc3C(F)(F)F)CC2)cc1 (stereo not drawn)
Result :: 7.24

Query :: And what about the compound COc1ccc2cc(C(=O)N3CCC(c4ccc(C(=O)NC(=N)N)cc4C(F)(F)F)CC3)ccc2c1 ?
Result :: 6.41

Query :: Also COc1ccc(C(=O)N2CCC(c3ccc(C(=O)NC(=N)N)cc3C(F)(F)F)CC2)cn1 , if possible.
Result :: 7.24

Query :: Quick one: N=C(N)NC(=O)c1ccc(C2CCN(C(=O)c3ccco3)CC2)c(C(F)(F)F)c1
Result :: 7.26
